Each entry below lists one item and its recorded z-score value.
- procedure_summary: osmotic lysis modulators in infected erythrocytes, primary screen, PSAC antagonist project, cell-based, P. falciparum Indochina, OD700, 3 h (AID 1156)
- experimental_parameters: higher = more signal, called active from +8 up or from −8 down
Activity calls are given as the source filed them.

> print(dat)
                                   molecule          reading
1  CCN(CC)c1ccc(N2CC=CC34O[C@@H]5C=CCCOC(=O)C5[C@H]3C(=O)N(CCCCCO)[C@@H]4C2=O)cc1 (some centres undefined)  1.11 (inactive)
2  CC(C)=CCCC(C)=CC(O)C1C=CC2C(=O)N(c3ccccc3)C(=O)C2N1Nc1ccccc1 (centres undefined)  1.09 (inactive)
3  C=CC[C@@]1(C(=O)NCC(O)CO)N=C(c2ccc(OCCCO)cc2)O[C@@H]1c1ccccc1N=[N+]=[N-] (some centres undefined)  3.23 (inactive)

Next molecule, z-score to be filled in.
Consider "C=C(C(=O)CC[C@H](OC(C)=O)c1ccc(OCCO)cc1)C(C)C" . Its measured z-score is -1.84 (inactive)

* * *

Measured z-score accompanies every entry in the list below.
- procedure_summary: HepG2 liver cancer cell viability effects, profiling panel, resazurin fluorescence, 24 h, PK04 Diversity Set (AID 1172); also: test concentration not given here
- experimental_parameters: higher = more signal
Write the number on its own, no unit after it.

compound	z-score
C=CCC(OC(C)=O)[C@@H]1[C@@H](N(Cc2cccc3ccccc23)C(=O)c2cccc3ccccc23)c2cc(OCCCO)ccc2N1C(=O)c1ccc2ccccc2n1 (stereo partly drawn)	-0.0111
Cc1ccc(S[C@]2(C(=O)NC3CC3)CC(=O)N(C3CCCCC3)[C@@H]2c2ccc(CO)cc2I)cc1	0.57

Short answer for "COc1ccc(C#Cc2ccc3c(c2)[C@]2(C(=O)N3)[C@H](C(=O)NC[C@H](O)c3ccccc3)[C@H]3C(=O)O[C@H](c4ccccc4)[C@H](c4ccccc4)N3[C@@H]2c2ccccc2OCCO)cc1" : z-score was -1.62

* * *

- procedure_summary: fission yeast growth modulation, primary screen, strain 972, OD600, 24 h, no modulator (AID 1090);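 also: basal condition with compound alone and no growth modifier present; test concentration not given here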
- experimental_parameters: S. pombe 972 growth, higher = more signal, called active from +8 up or from −8 down
measurement_type: z-score
Give only the figure.

Check out these entries, answers already filled in.
compound	reading
COC(=O)[C@@]1(Cc2ccc(OC)cc2)[C@H]2c3cc(C(=O)N4CCCC4)n(Cc4ccccn4)c3C[C@H]2CN1C(=O)c1ccccc1	0.482
COC(=O)C[C@@H]1C[C@H](C)[C@]2(O1)C(=O)N(Cc1ccccc1)c1ccc(NC(C)=O)cc12	-1.1
CC(=O)NCCCC[C@@H]1NC(=O)[C@@H]2C[C@H](C(=O)NCCCCN(C)C)[C@H](c3ccc(O)cc3)N2C1=O	0.169
CC(C)NC(=O)[C@@]1(Cc2ccccc2I)c2ccccc2C(=O)N(Cc2ccccc2)[C@H]1c1ccc(CO)cc1	-1.5
C=CC[C@@H](OC(=O)Nc1ccc(OC)cc1)c1ccc(O)c2ccccc12	-19.6

Record summary for O=C(OCCF)C1=CCC(c2cccc(Cl)c2)O1 (stereo not given) : reported z-score = -0.988

For record "[N-]=[N+]=Nc1ccccc1[C@@H]1OC(c2ccc(OCCCO)cc2)=N[C@]1(CCS(=O)(=O)c1ccccc1)C(=O)N1CCOCC1" the listed z-score is 1.91

The recorded z-score for entry "C=CCNC(=O)[C@@H]1[C@H]2C(=O)O[C@H](c3ccccc3)[C@H](c3ccccc3)N2[C@H](c2ccc(OCCO)cc2)[C@@]12C(=O)Nc1ccccc12" equals 0.406

The value of z-score measured for the compound "C=CCNC(=O)[C@H]1[C@@H]2C(=O)O[C@@H](c3ccccc3)[C@@H](c3ccccc3)N2[C@@H](c2ccc(O)cc2)[C@]12C(=O)N(C(=O)OCCOC)c1ccc(C#CCCO)cc12" turned out to be -0.47

// sample "O=c1oc(-c2ccccc2)nc2cc(Br)ccc12" , its z-score was -1.43

"[N-]=[N+]=NCc1ccccc1C[C@]1(C(=O)NCCN2CCOCC2)N=C(c2ccc(OCCCO)cc2)O[C@H]1c1ccccc1N=[N+]=[N-]" yielded z-score of 0.246

Cc1ccccc1C(O)C1C=CC2C(=O)N(C)C(=O)C2N1N1CCCCC1 (stereo not given) has a reported z-score of 0.619

Reported z-score for "[N-]=[N+]=NCc1ccccc1C[C@]1(C(=O)O)N=C(c2ccc(OCCCO)cc2)O[C@H]1c1ccccc1CN=[N+]=[N-]" was -3.09

// z-score lookup, compound = "COCCOC(=O)N1C(=O)[C@@]2(c3cc(C#CCC(C(=O)OC)C(=O)OC)ccc31)[C@H](c1ccc(O)cc1)N1[C@H](c3ccccc3)[C@H](c3ccccc3)OC(=O)[C@H]1[C@@H]2C(N)=O" , result: 0.431

Looking up "CCOC(=O)C1=CC[C@@H](c2ccccc2Cl)N(S(=O)(=O)c2ccc(C)cc2)C1" , I found its z-score recorded as 0.307

* * *

- procedure_summary: small-molecule microarray binders of probe aLefty2, primary screen, biochemical, biotinylated probe, 635/667 nm fluorescence (AID 1094);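 also: score merges spot fluorescence near 667 nm with spot signal-to-noise ratio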
- experimental_parameters: higher = more signal
Rule: composite z-score of -0.05 or more gives rule met; anything lower gives rule not met.

compound	label_value
CCOc1cc(C(O)C2C=CC3C(=O)N(c4ccccc4)C(=O)C3N2Nc2ccc([N+](=O)[O-])cc2)ccc1O (configuration not stated)	rule not met
C=CCC(OC(C)=O)[C@@H]1[C@@H](N(Cc2cccc3ccccc23)C(=O)c2cccc3ccccc23)c2cc(OCCCO)ccc2N1C(=O)c1ccc2ccccc2n1 (some centres not stated)	rule met

In: Has "COc1ccc([Si](C)(C)[C@H]2[C@H](CCn3cc([C@H](O)c4ccccc4)nn3)O[C@@]3(C(=O)N(Cc4cccc(N5CCC5=O)c4)c4ccccc43)[C@@H]2C)cc1" a recorded composite z-score greater than or equal to -0.05?
Out: rule not met

In: hey, is composite z-score for this one >= -0.05? "C[C@]1(C(=O)NCc2ccccc2)c2ccccc2C(=O)N(Cc2ccc(OC(F)(F)F)cc2)[C@H]1c1ccc(CO)cc1"
Out: rule not met

In: Form field: composite z-score at least -0.05? Entry: "CC1=C2[C@@H](CCc3ccccc3)OB(O)C[C@@H]2n2c(=O)n(-c3ccccc3)c(=O)n2C1"
Out: rule not met

In: Determine whether this compound has composite z-score no lower than -0.05: "COCCOC(=O)N1C(=O)[C@@]2(c3cc(C#CCC(C(=O)OC)C(=O)OC)ccc31)[C@H](c1ccc(O)cc1)N1[C@H](c3ccccc3)[C@H](c3ccccc3)OC(=O)[C@H]1[C@@H]2C(N)=O"
Out: rule met

In: Test whether the compound "COC(=O)[C@@]1(Cc2ccccc2N=[N+]=[N-])COC(c2ccc(OCCCO)cc2)=N1" records composite z-score of -0.05 or higher.
Out: rule met

* * *

- procedure_summary: small-molecule microarray binders of probe aLefty2, primary screen, biochemical, biotinylated probe, 635/667 nm fluorescence (AID 1094);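 also: score merges spot fluorescence near 667 nm with spot signal-to-noise ratio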
- experimental_parameters: higher = more signal
composite z-score reference
Please state the value as a number alone, without comment.

Below are worked cases with known answers.
> print(dat)
                                   compound   measurement.type  reading
1  Cc1ccc(S[C@]2(C(=O)NC3CC3)CC(=O)N(Cc3ccccc3)[C@@H]2c2ccc(CO)cc2)cc1  composite z-score   0.0704
2  CC(C)NC(=O)[C@@H]1c2ccccc2C(=O)N(Cc2ccccc2)[C@H]1c1ccc(CO)cc1  composite z-score     0.12
3  COC(=O)c1ccc(C(O)C2C=CC3C(=O)N(c4ccccc4)C(=O)C3N2Nc2ccc(C#N)cc2)o1 (centres undefined)  composite z-score  -0.0478

Continue with the next compound.
// composite z-score value for "CN(C)CCCCCCNC(=O)[C@H]1C[C@H]2C(=O)N[C@@H](CCCCN)C(=O)N2[C@H]1c1ccc(O)cc1" : 1.76

* * *

- procedure_summary: P. aeruginosa biofilm formation inhibitors, primary screen, PAO1 strain, BacTiter-Glo luminescence, LB-PBS (AID 1144)
- experimental_parameters: 12 h, higher = more signal
z-score below -0.5 gives not met; z-score at or above it gives met.

Example entries and their recorded answers appear below.
molecule	label_value
CC(C)(C)OC(=O)CC[C@@]1(C(=O)O)N=C(c2ccc(OCCCO)cc2)O[C@@H]1c1ccccc1N=[N+]=[N-]	met
CCCN1C(=O)[C@]2(COC(c3ccc(OCCCO)cc3)=N2)Cc2ccccc21	met
CS(=O)(=O)CCOC(=O)C1=CC(c2ccc(CO)cc2)=CC(C2CC2)N(Cc2cc3c(cc2Br)OCO3)C=C1C(=O)OCCS(C)(=O)=O (configuration not stated)	not met
CCOc1cc(C(O)C2C=CC3C(=O)N(c4ccccc4)C(=O)C3N2Nc2ccc([N+](=O)[O-])cc2)ccc1O (configuration not stated)	met
C=CC(=C)C1=CCO[C@@H]1[C@H]1CCCN1S(=O)(=O)c1ccccc1[N+](=O)[O-]	met
O=C(O)[C@H]1C[C@H]2C(=O)NCC(=O)N2[C@H]1c1ccc(O)cc1	not met

In: Exam item: decide whether the reported z-score for "COCCOC(=O)N1C(=O)[C@@]2(c3cc(C#CCC(C(=O)OC)C(=O)OC)ccc31)[C@H](C(=O)N1CCN(c3ncccn3)CC1)[C@H]1C(=O)O[C@H](c3ccccc3)[C@H](c3ccccc3)N1[C@@H]2c1ccc(OCCO)cc1" is at least -0.5.
Out: not met

In: Could you tell me if the measured z-score of "Cc1ccc(S[C@]2(C(=O)NC3CC3)CC(=O)N(Cc3ccccc3)[C@@H]2c2ccc(CO)cc2)cc1" reaches -0.5 or more?
Out: met

In: Assess whether reported z-score for O=C1C2C=CC(C(O)c3ccc(F)cc3)N(Nc3ccccc3)C2C(=O)N1c1ccccc1 (configuration not stated) sits at -0.5 or higher.
Out: not met

In: Does the molecule "CO[C@H]1O[C@H](CO)[C@@H](OC(=O)Nc2ccc3c(c2)OCO3)[C@H](OC(=O)Nc2ccccc2)[C@H]1OC(=O)Nc1ccccc1" have recorded z-score that is -0.5 or more?
Out: not met

In: State whether the measured z-score reaches -0.5, counting equality as reaching it, for "CCOC(=O)C[C@H]1[C@H](OC(=O)c2ccccc2-c2ccccc2)[C@@H](NC(=O)Cc2ccc(OC)cc2)c2cc(OCCCO)ccc2N1C(=O)c1ccccc1"
Out: met

In: Answer whether z-score of "C=C(CCCC)C(=O)CC[C@H](OC(=O)c1cccnc1)c1cccc(OCCO)c1" is greater than or equal to -0.5.
Out: met

In: Answer whether z-score of "C=CCOC(=O)[C@H]1[C@@H]2C(=O)O[C@@H](c3ccccc3)[C@@H](c3ccccc3)N2[C@@H](c2ccc(OCCOC(=O)[C@@H]3C[C@@H]4C(=O)NCC(=O)N4[C@@H]3c3ccc(O)cc3)cc2)[C@]12C(=O)Nc1ccccc12" is greater than or equal to -0.5.
Out: not met

Ref: PubChem BioAssay
